Cited source for all entries: BigSolDB 2.1

# conditionDescription: in n-butyl acetate, 293.15 K
valueType: solubility (mole fraction)
Output spec: single numeric token, no unit.

QUERY: If you can, please state the reported solubility (mole fraction) value of CC(CO)(CO)C(=O)O .
RESULT: 0.00038

###

# conditionDescription: in acetone, 323.15 K
valueType: solubility (mole fraction)

QUERY: If you can, please state the reported solubility (mole fraction) value of CC(CO)(CO)C(=O)O .
RESULT: 0.00753

###

# conditionDescription: in water, 288.15 K
valueType: solubility (mole fraction)
Output spec: single numeric token, no unit.

QUERY: If you can, please state the reported solubility (mole fraction) value of CC(CO)(CO)C(=O)O .
RESULT: 0.0133
